Listed compounds paired with reported normalized growth
Assay: chemical genetic growth profiling, strain panel (AID 1159580);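 note: tested at 20 µM; growth read once vehicle control cultures reached saturation at 30 °C; 1 = growth at the plate median or of vehicle wells; lower values mean less growth of the strain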
Details: S. cerevisiae deletion strains, growth OD, locus YEL037C, strain rad23, active compounds read low
Among all 5,500 compounds or so, about 2,000 (36%) were called active. Inconclusive results (about 18%) are left out. The list shows a part of the results.
I only need the number, thanks.

// known answers, use as guide
{"columns": ["compound", "normalized growth"],
 "data": [
  ["CC(=O)NS(=O)(=O)c1ccc(N)cc1", 1.01],
  ["CC(=O)OC1CCC2(O)CC1(C)CCC1C2CC1(C)C (stereo unspecified)", 1.02],
  ["CC12CCC(O)CC1CCc1ccccc12 (stereo unspecified)", 0.98],
  ["COc1ccc([C@@H](C)C(=O)c2ccc(O)cc2O)cc1", 0.966],
  ["CC12CCC(OC(=O)c3ccccc3)CC1CCc1ccccc12 (stereo unspecified)", 0.991],
  ["CC(=O)O[C@@H]1C2CC[C@@H]3C1(C[C@@H](O)[C@@]1(O)[C@@H](C[C@H](O)C1(C)C)[C@]3(C)O)C[C@@]2(C)O (stereo partly specified)", 0.997],
  ["CNC(=O)N(C)c1nnc(C(C)(C)C)s1", 0.981],
  ["Oc1cc2c(cc1O)C(c1ccccc1)CNCC2 (stereo unspecified)", 1]
]}

Entry CC(=O)OC1CCC23CC1(C)CCC2C(C)(C)CC3OC(C)=O (stereo unspecified) , normalized growth reported as 1.01

Entry CC(C)N1C(=O)c2ccccc2NS1(=O)=O , normalized growth reported as 0.976

Entry C[N+]12CCC(CC1)C(OC(=O)C(O)(c1ccccc1)c1ccccc1)C2 (stereo unspecified) , normalized growth reported as 0.988

Entry source: PubChem BioAssay AID1159580
